# System: CCRF-CEM cells
# Method description: Cell cycle and apoptosis analysis (propidium iodide flow cytometry)
# Type: cell-based, human
# Conditions used: 1 × IC50
Each entry below carries its recorded S (%).
Please state the figure in %; there is no need to write the unit.

1. C=C(Cn1cc(-c2ccccc2C=O)nn1)[C@@H]1CC[C@]2(C(=O)O)CC[C@]3(C)C(CCC4[C@@]5(C)CC[C@H](O)C(C)(C)C5CC[C@]43C)C12 (some centres unmarked) [Compound 11b]: 25.3

input: Specify S (%) for C=C(CN=[N+]=[N-])[C@@H]1CC[C@]2(C(=O)O)CC[C@]3(C)C(CCC4[C@@]5(C)CC[C@H](OC(C)=O)C(C)(C)C5CC[C@]43C)C12 (some centres unmarked) , system CCRF-CEM cells.
output: 30.4

input: Specify S (%) for C=C(Cn1cc(-c2ccccn2)nn1)[C@@H]1CC[C@]2(C(=O)O)CC[C@]3(C)C(CCC4[C@@]5(C)CC[C@H](OC(C)=O)C(C)(C)C5CC[C@]43C)C12 (some centres unmarked) , system CCRF-CEM cells.
output: 30.9

input: Specify S (%) for C=C(Cn1cc(-c2ccccc2C=O)nn1)[C@@H]1CC[C@]2(C(=O)O)CC[C@]3(C)C(CCC4[C@@]5(C)CC[C@H](OC(C)=O)C(C)(C)C5CC[C@]43C)C12 (some centres unmarked) , system CCRF-CEM cells.
output: 21.9

input: Specify S (%) for C=C(CBr)[C@@H]1CC[C@]2(C(=O)O)CC[C@]3(C)C(CCC4[C@@]5(C)CC[C@H](OC(C)=O)C(C)(C)C5CC[C@]43C)C12 (some centres unmarked) , system CCRF-CEM cells.
output: 35.9

====

# Test system: CCRF-CEM cells
# Method description: Cell cycle and apoptosis analysis (propidium iodide flow cytometry)
# Type: cell-based, human
# Conditions used: 1 × IC50
Each entry below carries its recorded Sub G1 (%).
Please state the figure in %; there is no need to write the unit.

As a guide, the following entries are already answered.
1) C=C(CBr)[C@@H]1CC[C@]2(C(=O)O)CC[C@]3(C)C(CCC4[C@@]5(C)CC[C@H](OC(C)=O)C(C)(C)C5CC[C@]43C)C12 (stereo partly drawn) [Compound 4, 3β-O-Acetyl-30-bromobetulinic acid]: 9.4
2) C=C(Cn1cc(-c2ccccn2)nn1)[C@@H]1CC[C@]2(C(=O)O)CC[C@]3(C)C(CCC4[C@@]5(C)CC[C@H](OC(C)=O)C(C)(C)C5CC[C@]43C)C12 (stereo partly shown) [Compound 9c]: 7.2
3) C=C(CN=[N+]=[N-])[C@@H]1CC[C@]2(C(=O)O)CC[C@]3(C)C(CCC4[C@@]5(C)CC[C@H](OC(C)=O)C(C)(C)C5CC[C@]43C)C12 (stereo partly drawn) [Compound 6, 3β-O-Acetyl-30-azidobetulinic acid]: 10.7

input: # return recorded Sub G1 (%) for input C=C(Cn1cc(-c2ccccc2C=O)nn1)[C@@H]1CC[C@]2(C(=O)O)CC[C@]3(C)C(CCC4[C@@]5(C)CC[C@H](OC(C)=O)C(C)(C)C5CC[C@]43C)C12 (stereo partly shown) [Compound 9b]
output: 10.8

====

# System: A549
# Method description: Cytotoxic MTS assay, A549
# Type: cell-based
# Conditions used: Homo sapiens, 72 h, lung adenocarcinoma
Measurement type: IC50 (µM)
Please state the figure in µM; there is no need to write the unit.

1) C=C(Cn1cc(-c2ccc(N(C)C)cc2)nn1)[C@@H]1CC[C@]2(C(=O)O)CC[C@]3(C)C(CCC4[C@@]5(C)CC[C@H](OC(C)=O)C(C)(C)C5CC[C@]43C)C12 (stereo partly drawn): 26.6

With those in mind, consider the next molecule.
input: Specify IC50 for C=C(CN=[N+]=[N-])[C@@H]1CC[C@]2(C(=O)O)CC[C@]3(C)C(CCC4[C@@]5(C)CC[C@H](O)C(C)(C)C5CC[C@]43C)C12 (stereo partly drawn) , system A549.
output: 23

====

Each entry below carries its recorded pIC50.
# Test system: U2OS
# Method description: Cytotoxic MTS assay, U2OS
# Type: cell-based
# Conditions used: Homo sapiens, 72 h, osteosarcoma
pIC50: −log10 of the molar value.

As a guide, the following entries are already answered.
1. C=C(Cn1cc(-c2ccccc2C=O)nn1)[C@@H]1CC[C@]2(C(=O)O)CC[C@]3(C)C(CCC4[C@@]5(C)CC[C@H](O)C(C)(C)C5CC[C@]43C)C12 (stereo partly drawn) [Compound 11b]: < 4.30
2. C=C(Cn1cc(-c2ccccn2)nn1)[C@@H]1CC[C@]2(C(=O)O)CC[C@]3(C)C(CCC4[C@@]5(C)CC[C@H](O)C(C)(C)C5CC[C@]43C)C12 (stereo partly drawn) [Compound 11c]: < 4.30

input: # return recorded pIC50 for input C=C(C)[C@@H]1CC[C@]2(C(=O)O)CC[C@]3(C)[C@H](CC[C@@H]4[C@@]5(C)CC[C@H](O)C(C)(C)[C@@H]5CC[C@]43C)[C@@H]12
output: < 4.30

====

# Tested on: U2OS
# Method description: Cytotoxic MTS assay, U2OS
# Type: cell-based
# Conditions used: Homo sapiens, 72 h, osteosarcoma
Measurement type: IC50 (µM)
Please state the figure in µM; there is no need to write the unit.

As a guide, the following entries are already answered.
1) C=C(Cn1cc(-c2ccccn2)nn1)[C@@H]1CC[C@]2(C(=O)O)CC[C@]3(C)C(CCC4[C@@]5(C)CC[C@H](OC(C)=O)C(C)(C)C5CC[C@]43C)C12 (stereo partly drawn) [Compound 9c]: 16
2) C=C(Cn1cc(-c2ccccc2)nn1)[C@@H]1CC[C@]2(C(=O)O)CC[C@]3(C)C(CCC4[C@@]5(C)CC[C@H](OC(C)=O)C(C)(C)C5CC[C@]43C)C12 (stereo partly drawn) [Compound 9a]: 24.8

With those in mind, consider the next compound.
input: # return recorded IC50 for input C=C(CBr)[C@@H]1CC[C@]2(C(=O)O)CC[C@]3(C)C(CCC4[C@@]5(C)CC[C@H](OC(C)=O)C(C)(C)C5CC[C@]43C)C12 (stereo partly drawn) [Compound 4, 3β-O-Acetyl-30-bromobetulinic acid]
output: 21.2
